Test: yeast display, Sf9 membrane polyspecificity reagent, FACS + sequencing; frameworks hold sequencing errors
recorded-metric: polyreactivity (PSR sort gate)

Answered cases to consult:
QVQLVESGGGLVQAGGSLRLSCAASGRIFDVNVMGWYRQAPGKERELVADISSGGGTDYADSVKGRFTISRDNAKNTVYLQMNILKQEDTAVYSCDWGQGTQVTVSS :: low polyreactivity
QVQLVESGGGIVQAGGSLRLSCAASGSIFGVYAMGWYRQAPGKERELVAAISSSGGRTYYADSVKGRFTISRDNAKNTVYLQMISLKPEDTAVYYCAAVPWRRSTRYDYWGQGTLVTVSS :: high polyreactivity
QVQLVESGGGLVQAGGSLRLSCAATGRTFSTYAMGWYRQAPGKERELVAAISSGGGRTYYADSVKGRFTISRDNAKNTVYLQMNSLKPEDTAVYYCAADFLWYIYIIGTSLEFDYWGQGTQVTVSS :: low polyreactivity
QVQLVESGGGLVQAGGSLRLSCAASGRIFFTYAMGWYRQAPGKERELVASITGSGGSTYYADSVKGRFTISRDNAKNTVYLQMNSLQPEETAVYYCAAALFPRQLYRKFYYWGQGTQVTVSS :: low polyreactivity
QVQLVESGGGLVQAGGSLRLSCAASGSIFYINAMGWYRQAPGKERELGAAITSDGSTYYADSVKGRFTISRDKAKHTVYLQMNSLKPEDTAVYYCAADLTSDQFLYYWYWFYSWGQGTQVTVSS :: low polyreactivity

For the sequence QVQLVESGGGLVQAGGSLRLSCAASGSIFYGYAMGWYRQAPGKERELVASITGSGGSTSYADSVKGRFTISRDNAKNTVYLQMNSLKPEDTAVYYCNTVLLQLYKLASGYDYWGQGTQVTVSS , what polyreactivity (PSR sort gate) is on record? high polyreactivity

For the sequence QVQIVESGGGLVQAGGSLPLSCAASGFIYNYNAMGWYRQAPRKERELVAAISTSGSSTYYADSVKGRFTISRDTPKNTVYLQMNSLKPEVTAVYYCARYRVARGEGGWLYDYWGQGTQVTVSS , what polyreactivity (PSR sort gate) is on record? high polyreactivity

For the sequence QVQLVESGGGLVQAGGSLRLSCAASGRTSVLYAMGWYRQAPWKEREFVAAITWNSGSTYYADSVKGRFTISRDNAKNTVYLQMNSLKPEDTAVYYCNADYYFSSYRSTYDYWGQGTQVTVSS , what polyreactivity (PSR sort gate) is on record? low polyreactivity

For the sequence QVQLVESGGGLVQAGGSLRLSCAASGSIFAGYAMGWYRQAPGKERELVAVISSTGSTYYADSVKGRFTISRDNAKNTVYLQMNSLKPEDTAVYYCAAGDVGYSYYRIYSRMDYWGQGTQVTVSS , what polyreactivity (PSR sort gate) is on record? low polyreactivity

For the sequence QVQLVESGGGLVQAGGSLRLSCASSGSISYYAMGWYRQAPGKERELVAAISSGGSTYYADSVKGRFTISRDNAKNTVYLQMNSLKPEDTAVYYCAVRYIIRGYATRYYYWGQGTQVTVSS , what polyreactivity (PSR sort gate) is on record? high polyreactivity

For the sequence QVQLVESGGGLVQAGGSLRLSCAASGSTFRHNAMGRYRPAPGKERELVAAITRSGGRTFYADSVKGRFTISRDNAKNTVYLQMNSLKPEDTAVYYCAAERITPYDSSSAYDYWGQGTQVTVSS , what polyreactivity (PSR sort gate) is on record? low polyreactivity
